All figures here come from the supplement of paper PMC7156485.

tested on: HCC1569; experiment: cell number relative to DMSO (% of DMSO); higher = more cells (less growth inhibition / toxicity); details: concentration: 10 µM; 24 h;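 note: TDF denotes transformed human dermal fibroblasts of mesenchymal origin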
REPORTED PROPERTY: cell number
Respond with the number and no other words.

compound OC[C@H]1NC[C@@H](O)[C@@H]1O , cell number observed: 105

compound CC(C)CCCC(C)C1CCC2C3CCC4=CC(N=O)CCC4(C)C3CCC12C [(20S)-cholest-4-en-3-one oxime] , cell number observed: 99.4

compound Cc1ccccc1-n1c(Cn2nc(-c3cccc(O)c3)c3c(N)ncnc32)nc2cccc(C)c2c1=O , cell number observed: 96.9

compound CCCCCCCCCCCCCCCC(=O)NCCO [Palmitoylethanolamide] , cell number observed: 104

compound COC(=O)c1cnn(-c2ccc(F)cc2F)c1/C=N/NC(=S)NC(C)(C)C , cell number observed: 95.9
